- measured.on: hNTS1 (Homo sapiens, UniProt P30989)
- Construct: expressed in transfected cells; host or cells: CHO-K1
- Sequence (P30989 whole entry): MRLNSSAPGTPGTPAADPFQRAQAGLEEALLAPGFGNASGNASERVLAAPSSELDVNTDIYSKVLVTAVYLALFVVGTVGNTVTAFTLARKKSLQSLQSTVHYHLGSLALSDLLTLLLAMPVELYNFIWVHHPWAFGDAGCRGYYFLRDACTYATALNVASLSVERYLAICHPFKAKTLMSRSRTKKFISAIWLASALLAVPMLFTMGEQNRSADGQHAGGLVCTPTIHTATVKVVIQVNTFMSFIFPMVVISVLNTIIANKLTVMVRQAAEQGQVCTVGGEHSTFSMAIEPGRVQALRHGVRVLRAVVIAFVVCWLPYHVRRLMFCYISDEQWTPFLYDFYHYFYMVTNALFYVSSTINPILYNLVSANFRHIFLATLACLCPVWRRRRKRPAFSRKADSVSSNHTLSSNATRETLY
- test.protocol: Radioligand competition binding with [3H]NT, membranes of CHO-K1 cells expressing hNTS1
- recorded.conditions: Table 2; hNTS1 over hNTS2
Where a SMILES comes first, the peptide text is derived from it. [ ]: non-standard residue; d: D form. Ala(indol-4-yl) = N[C@@H](Cc1cccc2[nH]ccc12)C(=O)O; 1Nal = N[C@@H](Cc1cccc2ccccc12)C(=O)O; NMeR = CN[C@@H](CCCNC(=N)N)C(=O)O; pGlu = O=C1CC[C@@H](C(=O)O)N1; Tle = CC(C)(C)[C@H](N)C(=O)O; dOrn = NCCC[C@@H](N)C(=O)O; Orn = NCCC[C@H](N)C(=O)O; Dab = NCC[C@H](N)C(=O)O
For each of the compounds below, state its hNTS1 Selectivity.
One number for each entry.

Reference set (5 entries):
- compound: "CN[C@@H](CCCNC(=N)N)C(=O)N[C@@H](CCN)C(=O)N1CCC[C@H]1C(=O)N[C@@H](Cc1cccc2[nH]ccc12)C(=O)N[C@H](C(=O)N[C@@H](CC(C)C)C(=O)O)C(C)(C)C [NT71] (H-[NMeR][Dab]P[Ala(indol-4-yl)][Tle]L-OH; N-terminus and C-terminus assumed)"
  hNTS1 Selectivity: 0.7
- compound: "CN[C@@H](CCCNC(=N)N)C(=O)N[C@H](CCCN)C(=O)N1CCC[C@H]1C(=O)N[C@@H](Cc1c[nH]c2ccccc12)C(=O)N[C@H](C(=O)N[C@@H](CC(C)C)C(=O)O)C(C)(C)C [NT78T] (H-[NMeR][dOrn]PW[Tle]L-OH; N-terminus and C-terminus assumed)"
  hNTS1 Selectivity: 0.5
- compound: "CC[C@H](C)[C@H](NC(=O)[C@H](Cc1ccc(O)cc1)NC(=O)[C@@H]1CCCN1C(=O)[C@@H](CCCCN)NC(=O)[C@@H](N)CCCNC(=N)N)C(=O)N[C@@H](CC(C)C)C(=O)O [NT03, [D-Lys^9]NT(8-13)] (H-R[dK]PYIL-OH; N-terminus and C-terminus assumed)"
  hNTS1 Selectivity: 0.4
- compound: "CC[C@H](C)[C@H](NC(=O)[C@H](Cc1ccc(O)cc1)NC(=O)[C@@H]1CCCN1C(=O)[C@@H](CCCNC(=N)N)NC(=O)[C@@H](N)CCCCN)C(=O)N[C@@H](CC(C)C)C(=O)O [NT16, [L-Lys^8,D-Arg^9]NT(8-13)] (H-K[dR]PYIL-OH; N-terminus and C-terminus assumed)"
  hNTS1 Selectivity: 1.2
- compound: "CC(C)C[C@H](NC(=O)[C@@H](NC(=O)[C@H](Cc1c[nH]c2ccccc12)NC(=O)[C@@H]1CCCN1C(=O)[C@H](CCCNC(=N)N)NC(=O)[C@H](N)CCCCN)C(C)(C)C)C(=O)O [NT66T, [D-Lys^8,L-Trp^11,tert-Leu^12]NT(8-13)] (H-[dK]RPW[Tle]L-OH; N-terminus and C-terminus assumed)"
  hNTS1 Selectivity: 0.1

Record hNTS1 Selectivity per entry; entries follow.
1. CC[C@H](C)[C@H](NC(=O)[C@H](Cc1ccc(O)cc1)NC(=O)[C@@H]1CCCN1C(=O)[C@H](CCN)NC(=O)[C@@H](N)CCN)C(=O)N[C@@H](CC(C)C)C(=O)O [NT31, [DAB^8,DAB^9]NT(8-13)] (H-[Dab][Dab]PYIL-OH; N-terminus and C-terminus assumed)
2. CC[C@H](C)[C@H](NC(=O)[C@H](Cc1ccc(O)cc1)NC(=O)[C@@H]1CCCN1C(=O)[C@H](CCCN)NC(=O)[C@@H](N)CCCNC(=N)N)C(=O)N[C@@H](CC(C)C)C(=O)O [NT23, [L-Orn^9]NT(8-13)] (H-R[Orn]PYIL-OH; N-terminus and C-terminus assumed)
3. CN[C@@H](CCCNC(=N)N)C(=O)N[C@H](CCCN)C(=O)N1CCC[C@H]1C(=O)N[C@@H](Cc1cccc2[nH]ccc12)C(=O)N[C@H](C(=O)N[C@@H](CC(C)C)C(=O)O)C(C)(C)C [NT78] (H-[NMeR][dOrn]P[Ala(indol-4-yl)][Tle]L-OH; C-terminus assumed)

1. 9.1
2. 1.6
3. 0.3

Form field: reported hNTS1 Selectivity of CC[C@H](C)[C@H](NC(=O)[C@H](Cc1cccc2ccccc12)NC(=O)[C@@H]1CCCN1C(=O)[C@H](CCCNC(=N)N)NC(=O)[C@H](CCCNC(=N)N)NC(=O)[C@@H]1CCCN1C(=O)[C@H](CCCCN)NC(=O)[C@H](CC(N)=O)NC(=O)[C@H](CCC(=O)O)NC(=O)[C@H](Cc1ccc(O)cc1)NC(=O)[C@H](CC(C)C)NC(=O)[C@@H]1CCC(=O)N1)C(=O)N[C@@H](CC(C)C)C(=O)O [NT62, [L-3,1-Nal^11]NT(1-13)] ([pGlu]LYENKPRRP[1Nal]IL-OH; C-terminus assumed)
1.7

----------
- measured.on: hNTS1 (Homo sapiens)
- Construct: expressed in transfected cells; host or cells: CHO-K1
- test.protocol: Radioligand competition binding with [3H]NT, membranes of CHO-K1 cells expressing hNTS1
- recorded.conditions: read-out: hNTS1 Geometric Mean ∀ SEM (equilibrium dissociation constant Kd)
Where a SMILES comes first, the peptide text is derived from it. [ ]: non-standard residue; d: D form. Ala(indol-4-yl) = N[C@@H](Cc1cccc2[nH]ccc12)C(=O)O; NMeR = CN[C@@H](CCCNC(=N)N)C(=O)O; Tle = CC(C)(C)[C@H](N)C(=O)O; dOrn = NCCC[C@@H](N)C(=O)O; Dab = NCC[C@H](N)C(=O)O
experimental.readout: Kd (nM)
Answers are plain numbers, in nM.

- compound: "CN[C@@H](CCCNC(=N)N)C(=O)N[C@@H](CCN)C(=O)N1CCC[C@H]1C(=O)N[C@@H](Cc1cccc2[nH]ccc12)C(=O)N[C@H](C(=O)N[C@@H](CC(C)C)C(=O)O)C(C)(C)C [NT71] (H-[NMeR][Dab]P[Ala(indol-4-yl)][Tle]L-OH; N-terminus and C-terminus assumed)"
  experimental.readout: "Kd"
  units.label: "nM"
  measured.value: 1.71
- compound: "CC[C@H](C)[C@H](NC(=O)[C@H](Cc1ccc(O)cc1)NC(=O)[C@@H]1CCCN1C(=O)[C@H](CCCNC(=N)N)NC(=O)[C@H](N)CCCN)C(=O)N[C@@H](CC(C)C)C(=O)O [NT22, [D-Orn^8]NT(8-13)] (H-[dOrn]RPYIL-OH; N-terminus and C-terminus assumed)"
  experimental.readout: "Kd"
  units.label: "nM"
  measured.value: 1.9
- compound: "CC(C)C[C@H](NC(=O)[C@@H](NC(=O)[C@H](Cc1cccc2[nH]ccc12)NC(=O)[C@@H]1CCCN1C(=O)[C@H](CCCNC(=N)N)NC(=O)[C@@H](N)CCCNC(=N)N)C(C)(C)C)C(=O)O [NT65, [neo-Trp^11,tert-Leu^12]NT(8-13)] (H-RRP[Ala(indol-4-yl)][Tle]L-OH; N-terminus and C-terminus assumed)"
  experimental.readout: "Kd"
  units.label: "nM"
  measured.value: 1.01
- compound: "CC(C)C[C@H](NC(=O)[C@@H](NC(=O)[C@H](Cc1c[nH]c2ccccc12)NC(=O)[C@@H]1CCCN1C(=O)[C@@H](CCCN)NC(=O)[C@@H](N)CCCNC(=N)N)C(C)(C)C)C(=O)O [NT77T, [D-Orn^9,L-Trp^11,tert-Leu^12]NT(8-13)] (H-R[dOrn]PW[Tle]L-OH; N-terminus and C-terminus assumed)"
  experimental.readout: "Kd"
  units.label: "nM"
  measured.value: 1530

Form field: reported Kd of CC(C)C[C@H](NC(=O)[C@@H](NC(=O)[C@H](Cc1cccc2[nH]ccc12)NC(=O)[C@@H]1CCCN1C(=O)[C@H](CCCNC(=N)N)NC(=O)[C@H](N)CCCCN)C(C)(C)C)C(=O)O [NT66L] (H-[dK]RP[Ala(indol-4-yl)][Tle]L-OH; N-terminus and C-terminus assumed)
10.2
